Molecular target: Granzyme B (GzmB) (human, UniProt P10144 21-247)
Sequence (P10144 21-247): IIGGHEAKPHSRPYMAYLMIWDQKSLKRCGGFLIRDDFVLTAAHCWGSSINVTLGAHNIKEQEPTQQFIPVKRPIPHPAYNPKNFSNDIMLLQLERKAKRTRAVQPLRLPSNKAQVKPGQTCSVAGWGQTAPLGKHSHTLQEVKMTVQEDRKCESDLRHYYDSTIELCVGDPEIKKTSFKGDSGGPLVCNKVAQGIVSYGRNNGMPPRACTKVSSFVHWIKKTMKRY
Test: fluorescence polarization
measurement.label: log10 of Kd (log10 of the value in nM)
Record value = log10 of Kd given in nM.

Record CCCAAGCUUAUUUAUUUAUUUAUUGCAGGUC (ssRNA) [AU RNA] , field log10 of Kd: 2.81

Record TCTGTGAGTTGAACGCACACATCACAAAGGAG (ssDNA) [BB94 ssDNA] , field log10 of Kd: 1.54

Record TTTTTTTTTTTTTTTTTTTTTTTTTTTTTT (ssDNA) [dT(30)] , field log10 of Kd: 1.65

Record UCUGUGAGUUGAACGCACACAUCACAAAGGA (ssRNA) [BB94 RNA] , field log10 of Kd: 2.68

Record BB94 dsDNA (dsDNA) DNA 1: TCTGTGAGTTGAACGCACACATCACAAAGGAG DNA 2: CTCCTTTGTGATGTGTGCGTTCAACTCACAGA , field log10 of Kd: 2.21

--- query ---
Record UUUUUUUUUUUUUUUUUUUUUUUUUUUUUU (ssRNA) [rU(30)] , field log10 of Kd: 2.20
